target_of_assay: Bromodomain BRD-4 (1-477) (Homo sapiens, UniProt O60885)
assay_notes: biochemical
condition_label: pIC50 in the BRD-4 assay, displacement of fluorescent ligand (Reference compound K) 5 nM, BRD-4 75 nM
pIC50: −log10 of the molar value.
metric: pIC50

>>> value("CNCc1ccc(-c2ccc3c(c2)[C@H](NC(=O)OC(C)C)C[C@H](C)N3C(C)=O)cc1 [Compound (IV)]")
"≥ 6.00"
